target.desc: fusion protein PRL
Sequence (chain, as listed by the source): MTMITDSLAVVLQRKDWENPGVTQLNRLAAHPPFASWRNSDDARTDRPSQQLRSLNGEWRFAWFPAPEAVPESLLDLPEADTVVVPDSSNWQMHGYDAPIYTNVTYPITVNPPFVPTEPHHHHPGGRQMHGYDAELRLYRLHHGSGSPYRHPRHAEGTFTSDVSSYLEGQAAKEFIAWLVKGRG
value.type: relative cleavage efficiency

Which measured relative cleavage efficiency value corresponds to OmpT protease variant OmpT D97H (protein) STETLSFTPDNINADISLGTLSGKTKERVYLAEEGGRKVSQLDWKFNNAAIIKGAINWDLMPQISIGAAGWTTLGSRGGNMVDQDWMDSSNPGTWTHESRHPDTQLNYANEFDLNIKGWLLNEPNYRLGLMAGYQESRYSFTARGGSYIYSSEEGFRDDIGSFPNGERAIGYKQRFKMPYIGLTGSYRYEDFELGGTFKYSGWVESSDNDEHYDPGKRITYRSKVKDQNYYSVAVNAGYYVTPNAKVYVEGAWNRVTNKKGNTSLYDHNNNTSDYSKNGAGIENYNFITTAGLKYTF ? less than 3%

Ok, now OmpT protease variant OmpT D97S (protein) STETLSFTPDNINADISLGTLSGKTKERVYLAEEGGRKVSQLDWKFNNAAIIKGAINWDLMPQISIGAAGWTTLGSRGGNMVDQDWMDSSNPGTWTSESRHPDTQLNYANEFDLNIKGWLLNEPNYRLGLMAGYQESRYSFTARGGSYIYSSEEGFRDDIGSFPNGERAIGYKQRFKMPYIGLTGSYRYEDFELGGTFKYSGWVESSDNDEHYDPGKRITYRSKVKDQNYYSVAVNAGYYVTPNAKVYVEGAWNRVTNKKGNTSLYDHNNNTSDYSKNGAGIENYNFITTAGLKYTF less than 3%

Same for OmpT protease variant OmpT D97T (protein) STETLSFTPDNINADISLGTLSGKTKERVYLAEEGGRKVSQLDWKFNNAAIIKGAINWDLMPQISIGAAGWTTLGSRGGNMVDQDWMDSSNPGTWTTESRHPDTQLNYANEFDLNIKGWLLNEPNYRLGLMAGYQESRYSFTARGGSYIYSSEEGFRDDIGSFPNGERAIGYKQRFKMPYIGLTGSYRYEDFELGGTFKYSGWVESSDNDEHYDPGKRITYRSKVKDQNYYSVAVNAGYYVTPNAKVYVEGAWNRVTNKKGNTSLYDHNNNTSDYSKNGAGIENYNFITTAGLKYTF less than 3%

These entries and their values trace back to patent US20070077617.
